The values you see were collected from patent US9573953B2.

# testDetails: Pharmacokinetic profiles in monkeys
# Assay type: in vivo
# testParameters: plasma; Monkey, iv dosing, 1 mg/kg
metricName: AUC(0-t) (ng·h/mL)

{"columns": ["querySmiles", "AUC(0-t) (ng·h/mL)"],
 "data": [
  ["COc1ncc(-c2ccn3ncc(C#CCO)c3c2)cc1NS(=O)(=O)c1ccc(F)cc1F", 5740],
  ["COc1ncc(-c2ccn3ncc(C#N)c3c2)cc1NS(=O)(=O)c1ccc(F)cc1F", 5980]
]}

* * *

# testDetails: Pharmacokinetic profiles in rats
# Type: in vivo
# testParameters: rat, plasma, iv dosing, 2 mg/kg
metricName: half-life (h)

{"columns": ["molecule", "metricName", "val"],
 "data": [
  ["COc1ncc(-c2ccn3ncc(C#N)c3c2)cc1NS(=O)(=O)c1ccc(F)cc1F", "half-life", 2.77],
  ["COc1ncc(-c2ccn3ncc(C#N)c3n2)cc1NS(=O)(=O)c1ccc(F)cc1F", "half-life", 3.7],
  ["COc1ncc(-c2ccn3ncc(C#CCO)c3n2)cc1NS(=O)(=O)c1ccc(F)cc1F", "half-life", 3.93]
]}

[a] COc1ncc(-c2ccn3ncc(C#CC(C)O)c3n2)cc1NS(=O)(=O)c1ccc(F)cc1F (centres unmarked)
[b] COc1ncc(-c2ccn3ncc(C#CCO)c3c2)cc1NS(=O)(=O)c1ccc(F)cc1F
Data request: Which entry has a larger number for half-life, a or b ? Select an item and report its label.
Data returned: a

* * *

# testDetails: Pharmacokinetic profiles in rats
# Assay type: in vivo
# testParameters: iv dose 1 mg/kg, oral dose generally 5 or 10 mg/kg
metricName: F (%)

# annotated cases, reported F shown
{"columns": ["molecule", "valueUnits", "F"],
 "data": [
  ["COc1ncc(-c2ccn3ncc(C#N)c3c2)cc1NS(=O)(=O)CC(F)(F)F [Ex. 10]", "%", 112.95],
  ["COc1ncc(-c2ccn3ncc(C#CC(C)(C)O)c3c2)cc1NS(=O)(=O)c1ccc(F)cc1F [Ex. 8]", "%", 103.40]
]}

[P] CC#Cc1cnn2ccc(-c3cnc(OC)c(NS(=O)(=O)c4ccc(F)cc4F)c3)nc12 [Ex. 7]
[Q] COc1ncc(-c2ccn3ncc(C#CC(C)(C)O)c3n2)cc1NS(=O)(=O)c1ccc(F)cc1F [Ex. 6]
Data request: Of P versus Q , which is the one with smaller reported F? Select an item and report its label.
Data returned: Q

* * *

# testTarget: PI3K p110α/p85α (h) (Homo sapiens, UniProt P42336)
# Sequence (P42336 whole entry): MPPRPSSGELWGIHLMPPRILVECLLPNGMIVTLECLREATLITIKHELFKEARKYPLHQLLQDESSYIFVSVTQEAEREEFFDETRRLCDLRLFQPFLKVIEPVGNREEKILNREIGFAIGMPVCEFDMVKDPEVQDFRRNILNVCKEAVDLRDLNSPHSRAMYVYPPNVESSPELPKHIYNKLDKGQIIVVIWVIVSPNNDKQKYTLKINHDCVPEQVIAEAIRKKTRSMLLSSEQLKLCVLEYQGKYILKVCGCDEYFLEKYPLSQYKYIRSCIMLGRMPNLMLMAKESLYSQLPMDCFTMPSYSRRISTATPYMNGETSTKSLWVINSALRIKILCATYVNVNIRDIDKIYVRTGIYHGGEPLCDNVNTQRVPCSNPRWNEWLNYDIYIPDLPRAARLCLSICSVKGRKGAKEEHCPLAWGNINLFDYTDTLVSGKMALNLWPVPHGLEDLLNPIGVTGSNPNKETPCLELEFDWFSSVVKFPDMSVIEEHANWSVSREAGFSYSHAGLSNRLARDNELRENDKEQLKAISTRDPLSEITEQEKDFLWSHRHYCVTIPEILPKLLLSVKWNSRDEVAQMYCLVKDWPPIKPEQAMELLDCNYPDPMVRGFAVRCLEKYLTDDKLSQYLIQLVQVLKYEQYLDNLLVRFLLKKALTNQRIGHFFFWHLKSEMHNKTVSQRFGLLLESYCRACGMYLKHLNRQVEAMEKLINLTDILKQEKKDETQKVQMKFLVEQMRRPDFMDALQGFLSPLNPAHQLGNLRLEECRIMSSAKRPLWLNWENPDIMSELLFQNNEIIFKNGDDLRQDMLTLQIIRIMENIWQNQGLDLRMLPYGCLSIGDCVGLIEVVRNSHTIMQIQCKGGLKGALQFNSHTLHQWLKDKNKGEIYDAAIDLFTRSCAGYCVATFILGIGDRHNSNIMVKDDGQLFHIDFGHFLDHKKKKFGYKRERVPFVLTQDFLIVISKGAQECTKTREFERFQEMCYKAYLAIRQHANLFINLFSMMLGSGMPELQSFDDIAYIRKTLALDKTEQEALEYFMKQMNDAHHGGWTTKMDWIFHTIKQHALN
# Sequence (P27986 whole entry partner): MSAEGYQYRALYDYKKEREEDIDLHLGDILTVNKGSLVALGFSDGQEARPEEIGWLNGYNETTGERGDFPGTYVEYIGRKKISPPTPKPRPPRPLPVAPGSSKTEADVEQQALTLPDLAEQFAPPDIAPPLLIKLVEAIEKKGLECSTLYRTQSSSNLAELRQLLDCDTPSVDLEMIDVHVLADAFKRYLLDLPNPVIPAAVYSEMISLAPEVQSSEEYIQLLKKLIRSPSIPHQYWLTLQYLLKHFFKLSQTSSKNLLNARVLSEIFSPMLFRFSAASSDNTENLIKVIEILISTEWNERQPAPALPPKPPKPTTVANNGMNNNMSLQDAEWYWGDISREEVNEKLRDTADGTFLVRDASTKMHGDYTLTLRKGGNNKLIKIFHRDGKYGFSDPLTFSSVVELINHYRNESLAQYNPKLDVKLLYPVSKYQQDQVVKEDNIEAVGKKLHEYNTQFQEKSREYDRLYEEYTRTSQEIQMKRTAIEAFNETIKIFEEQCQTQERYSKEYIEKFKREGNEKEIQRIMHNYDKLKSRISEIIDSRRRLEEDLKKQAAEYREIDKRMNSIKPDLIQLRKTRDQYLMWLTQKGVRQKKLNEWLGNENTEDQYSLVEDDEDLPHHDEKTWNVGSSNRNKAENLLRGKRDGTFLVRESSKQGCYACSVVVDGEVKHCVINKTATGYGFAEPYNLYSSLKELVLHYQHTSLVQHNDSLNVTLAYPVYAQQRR
# testDetails: PI3K p110α/p85α (h) non-radioactive (HTRF) assay
metricName: IC50 (nM)

[1] COc1ncc(-c2ccn3ncc(C#CCO)c3c2)cc1NS(=O)(=O)c1ccc(F)cc1F [Ex. 4]
[2] COc1ncc(-c2ccn3ncc(C#CC(C)O)c3n2)cc1NS(=O)(=O)c1ccc(F)cc1F (centres unmarked) [Ex. 5]
Data request: Which entry has a larger number for IC50, 1 or 2 ? Select an item and report its label.
Data returned: 2

* * *

# testDetails: Pharmacokinetic profiles in dogs
# Format: in vivo
# testParameters: plasma; Dog, iv dosing, 1 mg/kg
metricName: half-life (h)

[A] COc1ncc(-c2ccn3ncc(C#CCO)c3c2)cc1NS(=O)(=O)c1ccc(F)cc1F
[B] COc1ncc(-c2ccn3ncc(C#N)c3c2)cc1NS(=O)(=O)c1ccc(F)cc1F
Data request: Of A versus B , which is the one with smaller reported half-life? Select an item and report its label.
Data returned: B
